Biological target: Wee1 kinase domain (Homo sapiens, UniProt P30291)
Construct: Wee1 kinase domain was purchased from Carna (catalog #05-177); purchased Carna 05-177
Sequence (P30291 299-569 limits assumed): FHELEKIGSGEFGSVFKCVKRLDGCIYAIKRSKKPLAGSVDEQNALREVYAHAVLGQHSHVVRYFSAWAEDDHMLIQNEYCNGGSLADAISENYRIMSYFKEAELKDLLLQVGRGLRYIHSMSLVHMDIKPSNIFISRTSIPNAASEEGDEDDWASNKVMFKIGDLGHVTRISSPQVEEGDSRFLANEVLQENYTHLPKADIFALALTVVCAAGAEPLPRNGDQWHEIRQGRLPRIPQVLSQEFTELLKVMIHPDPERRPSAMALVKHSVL
Assay: Wee1 Kinase Biochemical Assay (ADP-Glo)
Conditions: class symbols; 1 nM Wee1 enzyme, 15 uM ATP, 4 hours at 25° C.
In this section we review reported IC50 values for a set of molecules.

Sample records with IC50:
CN1C[C@H]2C[C@@H]1CN2c1ccc(Nc2ncc3c(n2)N(c2cccc(C4(O)CC4)n2)[C@H]2CC(C)(C)OC[C@@]32C)cc1 ... 10 to 100 nM
CN1C[C@@H]2C[C@H]1CN2c1ccc(Nc2ncc3c(n2)N(c2cccc(N4CCOC4=O)n2)[C@H]2CC(C)(C)OC[C@@]32C)cc1 (single isomer, unassigned) ... 100 to 1000 nM
CN1CC[C@H](c2ccc(Nc3ncc4c(n3)N(c3cccc(N5CCCC5=O)n3)[C@H]3CC(C)(C)OC[C@@]43C)cc2)C1 ... 10 to 100 nM
CN1C[C@@H]2C[C@H]1CN2c1ccc(Nc2ncc3c(n2)N(c2cccc(C4(O)COC4)n2)[C@@H]2CC(C)(C)OC[C@]32C)cc1 (single isomer, unassigned) ... < 10 nM

In the following, a different molecule is considered.
-- ask For CC1(C)C[C@H]2N(c3cccc(N=S(C)(C)=O)n3)c3nc(NC(=O)[C@@H]4C[C@H]4C4CCOCC4)ncc3[C@@]2(C)CO1 (single isomer, unassigned) , what is its reported IC50?
-- reply < 10 nM
